Biological target: Proteasome Macropain subunit MB1 (Homo sapiens)
Sequence (P28074 whole entry): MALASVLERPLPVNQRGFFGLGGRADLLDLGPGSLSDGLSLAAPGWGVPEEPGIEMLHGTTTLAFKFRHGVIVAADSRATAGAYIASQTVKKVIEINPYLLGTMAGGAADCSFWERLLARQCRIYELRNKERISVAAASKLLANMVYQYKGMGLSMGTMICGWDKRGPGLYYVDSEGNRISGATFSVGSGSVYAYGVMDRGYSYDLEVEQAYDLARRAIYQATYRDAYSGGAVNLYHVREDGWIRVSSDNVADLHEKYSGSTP
Assay: Inhibition of 20S proteosome beta 5 purified from human HCT116 cells using Suc-LLVY-AMC as substrate incubated for 30 to 120 mins by fluorimetry
pIC50: −log10 of the molar value.
# pIC50 per entry

Compound	pIC50
CC(C)C[C@H](NC(=O)OCc1ccccc1)C(=O)N[C@@H](CC(N)=O)C(=O)C(=O)NCc1ccccc1	< 4.00

GET /values?readout=pIC50&system=Proteasome Macropain subunit MB1 (Homo sapiens)&item= CC(C)C[C@H](NC(=O)OCc1ccccc1)C(=O)N[C@@H](Cc1cccc2ccccc12)C(O)C(=O)NCc1ccccc1 (stereo partly drawn)
< 4.00

Now this one: CC(C)CNC(=O)C(O)[C@H](CC(C)C)NC(=O)[C@H](CC(C)C)NC(=O)[C@H](CC(C)C)NC(=O)OCc1ccccc1 (stereo partly drawn)
< 4.00
